Each recorded value in this set is attributed to ChEMBL document CHEMBL2331471.

measured_on: Platelet-derived growth factor receptor alpha (Homo sapiens, UniProt P16234)
Sequence (P16234 whole entry): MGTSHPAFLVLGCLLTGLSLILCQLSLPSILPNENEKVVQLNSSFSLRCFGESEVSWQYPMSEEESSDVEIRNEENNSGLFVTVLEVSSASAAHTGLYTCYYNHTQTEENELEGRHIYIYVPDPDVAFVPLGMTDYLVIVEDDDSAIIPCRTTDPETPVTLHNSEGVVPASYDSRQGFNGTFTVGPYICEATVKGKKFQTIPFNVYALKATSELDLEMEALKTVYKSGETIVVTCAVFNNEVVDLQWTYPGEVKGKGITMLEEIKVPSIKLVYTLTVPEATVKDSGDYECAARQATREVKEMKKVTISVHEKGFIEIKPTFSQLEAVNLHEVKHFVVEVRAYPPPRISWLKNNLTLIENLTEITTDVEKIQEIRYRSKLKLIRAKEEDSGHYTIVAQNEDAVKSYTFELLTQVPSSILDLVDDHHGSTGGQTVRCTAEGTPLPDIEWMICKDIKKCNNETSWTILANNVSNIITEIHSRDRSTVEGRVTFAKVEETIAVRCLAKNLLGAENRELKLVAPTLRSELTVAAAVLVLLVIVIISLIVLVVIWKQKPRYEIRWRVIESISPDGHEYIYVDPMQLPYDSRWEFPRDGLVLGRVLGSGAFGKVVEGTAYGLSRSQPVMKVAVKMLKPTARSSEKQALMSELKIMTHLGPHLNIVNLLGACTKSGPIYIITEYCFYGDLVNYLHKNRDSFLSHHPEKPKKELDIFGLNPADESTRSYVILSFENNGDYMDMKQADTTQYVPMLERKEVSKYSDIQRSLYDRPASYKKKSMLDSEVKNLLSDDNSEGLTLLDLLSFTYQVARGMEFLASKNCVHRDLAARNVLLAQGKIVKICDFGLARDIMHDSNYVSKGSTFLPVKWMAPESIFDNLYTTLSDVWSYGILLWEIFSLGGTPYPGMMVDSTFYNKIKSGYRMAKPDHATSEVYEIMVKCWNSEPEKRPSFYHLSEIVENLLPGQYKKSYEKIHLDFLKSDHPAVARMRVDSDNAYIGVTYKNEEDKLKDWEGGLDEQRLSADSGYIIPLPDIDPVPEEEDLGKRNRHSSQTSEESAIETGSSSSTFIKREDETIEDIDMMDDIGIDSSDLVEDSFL
measured_property: IC50 (µM)
Give bare numbers, in µM.

Recorded result, NC(=O)C1=C(N)C(=O)C=C(Nc2ccccc2O)C1=O [VEGFRECINE] , IC50: 3.2

---

# Vascular endothelial growth factor receptor 3 (Homo sapiens, UniProt P35916): pIC50 values follow
# Sequence (P35916 whole entry): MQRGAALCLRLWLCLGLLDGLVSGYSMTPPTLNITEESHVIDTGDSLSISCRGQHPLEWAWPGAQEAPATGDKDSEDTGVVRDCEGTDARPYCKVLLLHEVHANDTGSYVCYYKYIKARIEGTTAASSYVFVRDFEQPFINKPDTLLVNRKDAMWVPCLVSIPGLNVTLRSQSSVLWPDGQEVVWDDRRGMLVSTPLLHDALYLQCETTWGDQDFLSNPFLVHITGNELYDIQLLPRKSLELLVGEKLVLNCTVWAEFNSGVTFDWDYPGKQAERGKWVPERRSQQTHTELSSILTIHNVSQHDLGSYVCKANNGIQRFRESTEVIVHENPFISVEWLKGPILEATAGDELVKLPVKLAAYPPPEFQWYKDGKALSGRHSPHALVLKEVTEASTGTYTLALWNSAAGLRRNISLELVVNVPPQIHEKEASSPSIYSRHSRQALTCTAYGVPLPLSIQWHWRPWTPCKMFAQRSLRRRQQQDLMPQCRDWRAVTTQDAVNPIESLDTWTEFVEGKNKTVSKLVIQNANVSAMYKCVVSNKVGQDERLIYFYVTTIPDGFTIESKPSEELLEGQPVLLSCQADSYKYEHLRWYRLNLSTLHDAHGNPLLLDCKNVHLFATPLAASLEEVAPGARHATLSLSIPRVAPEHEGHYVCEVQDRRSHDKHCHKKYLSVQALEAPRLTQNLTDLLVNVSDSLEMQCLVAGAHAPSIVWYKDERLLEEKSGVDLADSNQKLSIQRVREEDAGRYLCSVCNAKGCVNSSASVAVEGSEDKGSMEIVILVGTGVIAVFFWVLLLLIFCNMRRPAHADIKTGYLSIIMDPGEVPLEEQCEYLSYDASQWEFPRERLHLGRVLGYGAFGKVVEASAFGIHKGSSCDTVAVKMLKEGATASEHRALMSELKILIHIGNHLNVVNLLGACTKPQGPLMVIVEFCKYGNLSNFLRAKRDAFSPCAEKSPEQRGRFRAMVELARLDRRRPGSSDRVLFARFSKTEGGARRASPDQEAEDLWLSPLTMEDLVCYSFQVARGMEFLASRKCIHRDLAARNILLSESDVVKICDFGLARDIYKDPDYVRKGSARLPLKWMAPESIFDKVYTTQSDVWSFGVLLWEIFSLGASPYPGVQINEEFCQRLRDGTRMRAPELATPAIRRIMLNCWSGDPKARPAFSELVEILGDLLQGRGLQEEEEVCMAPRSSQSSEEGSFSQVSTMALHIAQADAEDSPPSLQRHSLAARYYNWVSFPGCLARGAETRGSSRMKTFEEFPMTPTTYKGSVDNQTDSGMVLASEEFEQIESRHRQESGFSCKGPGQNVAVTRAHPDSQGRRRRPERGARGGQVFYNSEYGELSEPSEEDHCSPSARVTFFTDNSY
Give bare numbers, as −log10 of the molar value.

{"cpd_smiles": "NC(=O)C1=C(N)C(=O)C=C(Nc2ccccc2O)C1=O", "pIC50": 8.74}

Switching to the query record.
Recorded result, Cc1cc(C)c(/C=C2\C(=O)Nc3ccccc32)[nH]1 , pIC50: 6.30
